# Tested on: MB231
# measurementProtocol: In vitro proliferation assay (CellTiter-Glo), MB231
# Assay type: cell-based
# conditions: Homo sapiens; MB231 cells; cultured 72 to 144 hours; CellTiter-Glo cell viability
recordedMetric: IC50 (nM)
Answer in nM, number only, no unit symbol.

Query: Endpoint output: IC50 of CC[C@H](C)[C@H](NC(=O)[C@H]1CC(C)(C)CCN1C)C(=O)N(C)[C@H](C[C@@H](OC(C)=O)c1nc(C(=O)N[C@@H](Cc2ccccc2)C[C@H](C)C(=O)O)cs1)C(C)C . Value?
Reply: 3.9

Query: And CC[C@H](C)[C@H](NC(=O)[C@H]1C[C@H](C)CCN1C)C(=O)N(C)[C@H](C[C@@H](OC(C)=O)c1nc(C(=O)N[C@@H](Cc2ccc(N)cc2)C[C@H](C)C(=O)O)cs1)C(C)C ?
Reply: 6.6

Query: Record: CC[C@H](C)[C@H](NC(=O)[C@H]1C[C@H](C)CCN1C)C(=O)N(C)[C@H](C[C@@H](OC(C)=O)c1nc(C(=O)N[C@@H](Cc2ccccc2)C[C@H](C)C(=O)O)cs1)C(C)C
Reply: 3.4

Query: Follow-up entry: CC[C@H](C)[C@H](NC(=O)[C@H]1C[C@H](C)CCN1C)C(=O)N(CC)[C@H](C[C@@H](OC(C)=O)c1nc(C(=O)N[C@@H](Cc2ccc(N)cc2)C[C@H](C)C(=O)O)cs1)C(C)C
Reply: 2.5
